Entry source: ChEMBL document CHEMBL5356944

Tested on: A549
experiment.summary: Cytotoxicity against human A549 cells assessed as reduction in cell growth incubated for 48 hrs by Alamar blue assay
Format: functional, cell-based
study.conditions: A549, 48 h
measured.endpoint: IC50 (µM)
// units = µM; emit number, no label

# input // returns reported IC50 for input "CC1(C)CC[C@]2(C(=O)O)CC[C@]3(C)C(=CC[C@@H]4[C@@]5(C)CC[C@H](O)[C@@](C)(CO)[C@@H]5CC[C@]43C)[C@@H]2C1"
# output 26.2

====

Tested on: A549
experiment.summary: Cytotoxicity against human A549 cells assessed as reduction in cell viability measured after 24 hrs by MTT assay
Type: functional, cell-based
study.conditions: A549, 24 h
measured.endpoint: IC50 (µM)
// units = µM; emit number, no label

# input // returns reported IC50 for input "Cc1cncc(C(=O)OCCOC(=O)[C@]23CCC(C)(C)C[C@H]2C2=CC[C@@H]4[C@@]5(C)CC[C@H](O)[C@@](C)(CO)[C@@H]5CC[C@@]4(C)[C@]2(C)CC3)n1"
# output 3.45
